All values here come from patent EP4428121A1.

target: Human (6-His)Sortilin (Homo sapiens, UniProt Q99523); construct: purchased RnD Systems; assay: Human Sortilin GCI (Grating-Coupled Interferometry) binding assay; settings: Creoptix WAVE-RAPID, single concentration (usually 1 µM, 10 µM or 100 µM), immobilised Human (6-His)Sortilin, 1:1 kinetic binding model
Sequence (Q99523 78-755 limits assumed): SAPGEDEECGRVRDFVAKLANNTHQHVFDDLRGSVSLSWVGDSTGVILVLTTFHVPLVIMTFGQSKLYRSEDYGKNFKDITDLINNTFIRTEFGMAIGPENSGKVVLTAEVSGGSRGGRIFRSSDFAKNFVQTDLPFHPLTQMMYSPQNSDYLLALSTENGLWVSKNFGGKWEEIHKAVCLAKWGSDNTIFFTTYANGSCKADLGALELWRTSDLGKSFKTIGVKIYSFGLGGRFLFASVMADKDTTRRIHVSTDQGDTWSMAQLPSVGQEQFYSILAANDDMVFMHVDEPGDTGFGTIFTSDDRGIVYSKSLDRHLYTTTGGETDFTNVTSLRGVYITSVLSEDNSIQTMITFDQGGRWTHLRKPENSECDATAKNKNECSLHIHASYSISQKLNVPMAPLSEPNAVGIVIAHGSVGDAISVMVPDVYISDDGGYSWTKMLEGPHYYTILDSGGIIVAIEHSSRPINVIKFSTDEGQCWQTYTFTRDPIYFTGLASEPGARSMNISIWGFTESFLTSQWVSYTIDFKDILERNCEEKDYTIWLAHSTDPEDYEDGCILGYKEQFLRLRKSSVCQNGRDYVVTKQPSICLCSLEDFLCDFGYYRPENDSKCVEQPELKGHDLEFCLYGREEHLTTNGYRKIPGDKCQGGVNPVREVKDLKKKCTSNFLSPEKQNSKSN
measurement-kind: log10 Kd (log10 of the value in nM)
On a log10 scale: recorded Kd, unit nM.

Before answering, review these 5 worked examples.
| molecule | reported |
| --- | --- |
| CC(C)CC(Nc1ncccn1)c1nn[nH]n1 (racemic) | 4.99 |
| CC(C)(C)CC[C@H](Nc1cncc2ccccc12)C(=O)O | 1.76 |
| CC(C)(C)CCC(Nc1cccnc1)c1nn[nH]n1 (racemic) | 3.26 |
| Cc1cc(N[C@@H](CCC(C)(C)C)C(=O)O)nc(C)n1 | 2.70 |
| Cn1ccc2cc(NC(CCC(C)(C)C)c3nn[nH]n3)cnc21 (racemic) | 2.87 |

**Q:** Which log10 Kd value is on record for CC(C)(C)CC[C@H](Nc1ccccn1)C(=O)O ?
**A:** 3.35

**Q:** For the molecule shown here, CC(C)CCC(Nc1cncc2ccccc12)c1nn[nH]n1 (racemic) , give the reported log10 Kd.
**A:** 3.94

**Q:** What value of log10 Kd has been reported for the following molecule? CC(C)(C)CC(Nc1cc2ccccc2cn1)c1nn[nH]n1 (racemic)
**A:** 3.77

**Q:** Requested field: log10 Kd. Item: Cc1nccc(N[C@@H](CCC(C)(C)C)C(=O)O)n1
**A:** 2.03
